These entries and their values trace back to patent US20240228562A1.

Target: T1, Murine CTGF (Mus musculus, UniProt P29268)
T1 construct: purchased Abbexa
T1 sequence (P29268 26-348): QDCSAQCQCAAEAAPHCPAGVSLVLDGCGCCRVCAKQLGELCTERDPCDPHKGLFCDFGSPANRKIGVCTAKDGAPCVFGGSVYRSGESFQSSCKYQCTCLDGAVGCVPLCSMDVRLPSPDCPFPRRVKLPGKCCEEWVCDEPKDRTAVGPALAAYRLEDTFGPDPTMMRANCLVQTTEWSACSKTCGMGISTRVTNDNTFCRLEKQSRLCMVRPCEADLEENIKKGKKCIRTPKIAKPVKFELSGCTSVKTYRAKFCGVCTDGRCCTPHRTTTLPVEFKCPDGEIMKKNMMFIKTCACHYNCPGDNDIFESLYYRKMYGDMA
Experiment: SPR binding kinetics and affinity, murine CTGF
Conditions: 25° C., 1:1 binding model
observed_property: Murine CTGF kon (M⁻¹ s⁻¹)
Form entry: value (M⁻¹ s⁻¹) — number only.

Here are 3 molecules together with their reported answers.
molecule="SEQ ID NO: 16: optimized CTGF-binding hNGAL lipocalin mutein (protein, lipocalin mutein) QDSTSDLIPAPPLSKVPLQQNFQDNQFQGKWYVVGLAGNAILRTDKQPAKMFATIYELKEDKSYDVTSVRFEAKSCVYTIKTFVPGSQPGEFTAGNIKSAPGQTSTLVRVVSTNYNQHAMVFFKHVSQNREFFVITLYGRTKELTSELKENFIRFSKSLGLPENHIVFPVPIDQCIDG" measured=161000
molecule="SEQ ID NO: 19: optimized CTGF-binding hNGAL lipocalin mutein (protein, lipocalin mutein) QDSTSDLIPAPPLSKVPLQQNFQDNQFQGKWYVVGLAGNAILREDKQPAKMFATIYELKEDKSYDVTSVRFEAKSCSYTIKTFVPGSQPGEFTAGNIKSAPGQTSTLVRVVSTNYNQHAMVFHKAVSQNRESFVITLYGRTKELTSELKENFIRFSKSLGLPENHIVFPVPIDQCIDG" measured=93200
molecule="SEQ ID NO: 12: optimized CTGF-binding hNGAL lipocalin mutein (protein, lipocalin mutein) QDSTSDLIPAPPLSKVPLQQNFQDNQFQGKWYVVGLAGNAILREDKYPAKMFATIYELKEDKSYDVTSVRFENKSCVYTIKTFVPGSQPGEFTTGNIKSAPGQTSTLVRVVSTNYNQHAMVFFKHVSQNREFFVITLYGRTKELTSELKENFIRFSKSLGLPENHIVFPVPIDQCIDG" measured=91400

Field: next molecule
# Murine CTGF kon lookup, item SEQ ID NO: 31: optimized CTGF-binding hNGAL lipocalin mutein (protein, lipocalin mutein) QDSTSDLIPAPPLSKVPLQQNFQDNQFQGKWYVVGWAGNVKLREDKQPQKMSATIYELKEDKSYDVTEVVFEQKKCHYIIKTFVPGSQPGEFTAGDIKSPPGYTSSLVRVVSTNYNQHAMVFFKKVSQNREFFWITLYGRTKELTSELKENFIRFSKSLGLPENHIVFPVPIDQCIDG
281000
